- STUDY_TARGET: IRAK4 (Homo sapiens (Human))
- Sequence (Q9NWZ3 whole entry): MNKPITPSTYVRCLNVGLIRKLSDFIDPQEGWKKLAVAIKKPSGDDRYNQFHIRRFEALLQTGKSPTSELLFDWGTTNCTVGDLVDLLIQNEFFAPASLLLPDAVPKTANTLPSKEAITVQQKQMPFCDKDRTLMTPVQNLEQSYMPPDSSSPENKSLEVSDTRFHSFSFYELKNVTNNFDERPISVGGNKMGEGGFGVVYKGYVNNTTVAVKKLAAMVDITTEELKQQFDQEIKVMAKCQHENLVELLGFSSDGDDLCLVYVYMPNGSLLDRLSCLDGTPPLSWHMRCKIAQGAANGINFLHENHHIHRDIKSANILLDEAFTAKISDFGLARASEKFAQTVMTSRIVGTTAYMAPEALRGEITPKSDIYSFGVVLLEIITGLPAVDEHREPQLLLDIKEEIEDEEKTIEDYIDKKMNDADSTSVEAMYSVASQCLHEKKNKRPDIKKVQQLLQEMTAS
- TEST: IRAK4 MSD degradation in OCI-LY10
- Format: cell-based
- RUN_PARAMETERS: OCI-LY10, 4 hrs, MSD; read-out: IRAK4 MSD degradation in OCI-LY10 at 4 hrs: Average external-Abs DC50
So I've got a bunch of molecules here, and I need their DC50 values.

Ask: Using the record for CN(CC1CCN(CCC#Cc2ccc3c(c2)n(C)c(=O)n3C2CCC(=O)NC2=O)CC1)C[C@H]1CC[C@H](n2cc(NC(=O)c3coc(-c4ccnc(NCC5CC5)c4)n3)c(C(F)F)n2)CC1 (stereo partly drawn) [I-57] , report its DC50.
Reply: < 10 nM

Ask: Queued: CN(CCOCCNCc1cccc2c1n(C)c(=O)n2C1CCC(=O)NC1=O)C[C@H]1CC[C@H](n2cc(NC(=O)c3coc(-c4ccnc(NCC5CC5)c4)n3)c(C(F)F)n2)CC1 (stereo partly drawn) [I-237]
Reply: < 10 nM

Ask: Queued: CN(CCCOCCCc1cccc2c1n(C)c(=O)n2C1CCC(=O)NC1=O)C[C@H]1CC[C@H](n2cc(NC(=O)c3coc(-c4ccnc(NCC5CC5)c4)n3)c(C(F)F)n2)CC1 (mixture of isomers) [I-30]
Reply: < 10 nM

Ask: Queued: O=C1CCC(N2C(=O)c3cccc(NC4CCN(CCCNC[C@H]5CC[C@H](n6cc(NC(=O)c7cnn8ccc(N9CCOCC9)nc78)c(C(F)F)n6)CC5)CC4)c3C2=O)C(=O)N1 (stereo partly drawn) [I-384]
Reply: 10 to 100 nM

Ask: Queued: CN(CCCOCC#Cc1cccc2c1n(C)c(=O)n2C1CCC(=O)NC1=O)C[C@H]1CC[C@H](n2cc(NC(=O)c3coc(-c4ccnc(NCC5CC5)c4)n3)c(C(F)F)n2)CC1 (stereo partly drawn) [I-88]
Reply: 100 to 1000 nM

Ask: Queued: Cc1nc2cccc(OCCCOC3CCN(C[C@H]4CC[C@H](n5cc(NC(=O)c6cnn7ccc(N8CCOCC8)nc67)c(C(F)F)n5)CC4)CC3)c2c(=O)n1C1CCC(=O)NC1=O (stereo partly drawn) [I-215]
Reply: > 1000 nM

Ask: Queued: CN(CCOCCOCCOC12CC3CC(CC(C3)C1)C2)C[C@H]1CC[C@H](n2cc(NC(=O)c3coc(-c4ccnc(NCC5CC5)c4)n3)c(C(F)F)n2)CC1 [I-174]
Reply: > 1000 nM

Ask: Queued: CC[C@@H]1[C@H](F)C(=O)N[C@@H]1COc1ncc(C#C[C@H]2CC[C@H](CN3CCC(OCCNc4cccc5c4C(=O)N(C4CCC(=O)NC4=O)C5=O)CC3)CC2)c2cc(C(N)=O)c(OC)cc12 (stereo partly drawn) [I-386]
Reply: 100 to 1000 nM

Ask: Queued: O=C1CCC(N2Cc3c(OC4CC5(CCN(C[C@H]6CC[C@H](n7cc(NC(=O)c8cnn9ccc(N%10C[C@H]%11C[C@@H]%10CO%11)nc89)c(C(F)F)n7)CC6)CC5)C4)cccc3C2=O)C(=O)N1 (stereo partly drawn) [I-328]
Reply: 10 to 100 nM

Ask: Queued: CN1C(=O)C(C2CCC(=O)NC2=O)c2cccc(CCCOC3CCN(C[C@H]4CC[C@H](n5cc(NC(=O)c6cnn7ccc(N8CC[C@H](O)C8)nc67)c(C(F)F)n5)CC4)CC3)c21 (stereo partly drawn) [I-282]
Reply: < 10 nM

Ask: Queued: CN(CCCOCCCc1cccc2c1n(C)c(=O)n2C1CCC(=O)NC1=O)C[C@H]1CC[C@H](n2cc(NC(=O)c3cccc(C(F)(F)F)n3)c(C(F)F)n2)CC1 (stereo partly drawn) [I-44]
Reply: > 1000 nM

Ask: Queued: Cn1c(=O)n(C2CCC(=O)NC2=O)c2cccc(CCCOC3CCN(C(=O)[C@H]4CC[C@H](n5cc(NC(=O)c6cnn7ccc(N8CCOCC8)nc67)c(C(F)F)n5)CC4)CC3)c21 (stereo partly drawn) [I-149]
Reply: < 10 nM

Ask: Queued: CC[C@@H]1[C@H](F)C(=O)N[C@@H]1COc1ncc(C#C[C@H]2CC[C@H](CN(C)CCCOCCCN)CC2)c2cc(C(N)=O)c(OC)cc12 [I-316]
Reply: > 1000 nM

Ask: Queued: Cn1c(=O)n(C2CCC(=O)NC2=O)c2cccc(CCCOC3CCN(C[C@H]4CC[C@H](n5cc(NC(=O)c6cnn7ccc(N[C@@H]8CCCC[C@H]8O)nc67)c(C(F)F)n5)CC4)CC3)c21 (stereo partly drawn) [I-293]
Reply: 10 to 100 nM

Ask: Queued: CN(CCOC(=O)NCc1ccc2c(c1)n(C)c(=O)n2C1CCC(=O)NC1=O)C[C@H]1CC[C@H](n2cc(NC(=O)c3coc(-c4ccnc(NCC5CC5)c4)n3)c(C(F)F)n2)CC1 (stereo partly drawn) [I-91]
Reply: 100 to 1000 nM

Ask: Queued: O=C1CCC(n2c(=O)oc3c(CCCOCCNC(=O)[C@H]4CC[C@H](n5cc(NC(=O)c6coc(-c7ccnc(NCC8CC8)c7)n6)c(C(F)F)n5)CC4)cccc32)C(=O)N1 (stereo partly drawn) [I-5]
Reply: < 10 nM

Ask: Queued: CN(C[C@H]1CN(CCCc2ccc3c(c2)n(C)c(=O)n3C2CCC(=O)NC2=O)CCO1)C(=O)[C@H]1CC[C@H](n2cc(NC(=O)c3coc(-c4ccnc(NCC5CC5)c4)n3)c(C(F)F)n2)CC1 (stereo partly drawn) [I-18]
Reply: < 10 nM

Ask: Queued: Cn1c(=O)n(C2CCC(=O)NC2=O)c2cccc(CN3CCC(N(C)[C@H]4CC[C@H](Oc5ncnc6ccc(C#N)cc56)CC4)CC3)c21 (stereo partly drawn) [I-270]
Reply: > 1000 nM

Ask: Queued: CC[C@@H]1CC(=O)N[C@@H]1COc1ncc(C#C[C@H]2CC[C@H](CN3CCC(OCCCc4cccc5c4n(C)c(=O)n5C4CCC(=O)NC4=O)CC3)CC2)c2cc(C(N)=O)c(OC)cc12 (stereo partly drawn) [I-229]
Reply: 10 to 100 nM

Ask: Queued: CN(CC1CCN(c2cccc3c2C(=O)N(C2CCC(=O)NC2=O)C3=O)CC1)C[C@H]1CC[C@H](n2cc(NC(=O)c3cnn4ccc(N5CCOCC5)nc34)c(C(F)F)n2)CC1 (stereo partly drawn) [I-220]
Reply: > 1000 nM

Ask: Queued: CN(CCOCCOCCCc1ccc2c(c1)oc(=O)n2C1CCC(=O)NC1=O)C[C@H]1CC[C@H](n2cc(NC(=O)c3coc(-c4ccnc(NCC5CC5)c4)n3)c(C(F)F)n2)CC1 (stereo partly drawn) [I-43]
Reply: 10 to 100 nM
